target: Recombinant human His6-USP1/His6-UAF1 complex protein (Homo sapiens (Human), UniProt O94782); assay: In vitro , fluorescence detection with Ub-Rho substrate; type: biochemical
Sequence (O94782 whole entry): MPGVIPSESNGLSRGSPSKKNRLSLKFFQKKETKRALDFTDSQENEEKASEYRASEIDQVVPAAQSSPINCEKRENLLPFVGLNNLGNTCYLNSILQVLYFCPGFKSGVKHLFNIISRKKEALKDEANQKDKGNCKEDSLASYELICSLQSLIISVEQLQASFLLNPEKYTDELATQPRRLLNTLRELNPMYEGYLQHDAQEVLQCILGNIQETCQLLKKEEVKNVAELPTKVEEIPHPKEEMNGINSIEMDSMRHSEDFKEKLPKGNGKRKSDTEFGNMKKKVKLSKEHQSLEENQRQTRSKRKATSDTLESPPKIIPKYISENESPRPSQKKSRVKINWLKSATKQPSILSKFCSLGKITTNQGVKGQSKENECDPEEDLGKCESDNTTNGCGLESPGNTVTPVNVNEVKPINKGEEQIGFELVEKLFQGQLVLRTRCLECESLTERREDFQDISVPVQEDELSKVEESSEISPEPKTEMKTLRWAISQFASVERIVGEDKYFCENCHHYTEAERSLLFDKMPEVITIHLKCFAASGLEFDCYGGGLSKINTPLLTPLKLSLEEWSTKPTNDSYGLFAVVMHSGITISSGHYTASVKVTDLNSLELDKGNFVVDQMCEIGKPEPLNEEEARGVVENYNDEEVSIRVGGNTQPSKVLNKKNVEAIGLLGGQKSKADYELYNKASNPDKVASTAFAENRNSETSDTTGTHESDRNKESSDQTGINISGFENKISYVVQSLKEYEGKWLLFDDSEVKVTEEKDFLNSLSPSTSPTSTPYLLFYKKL
Sequence (Q8TAF3 whole entry partner): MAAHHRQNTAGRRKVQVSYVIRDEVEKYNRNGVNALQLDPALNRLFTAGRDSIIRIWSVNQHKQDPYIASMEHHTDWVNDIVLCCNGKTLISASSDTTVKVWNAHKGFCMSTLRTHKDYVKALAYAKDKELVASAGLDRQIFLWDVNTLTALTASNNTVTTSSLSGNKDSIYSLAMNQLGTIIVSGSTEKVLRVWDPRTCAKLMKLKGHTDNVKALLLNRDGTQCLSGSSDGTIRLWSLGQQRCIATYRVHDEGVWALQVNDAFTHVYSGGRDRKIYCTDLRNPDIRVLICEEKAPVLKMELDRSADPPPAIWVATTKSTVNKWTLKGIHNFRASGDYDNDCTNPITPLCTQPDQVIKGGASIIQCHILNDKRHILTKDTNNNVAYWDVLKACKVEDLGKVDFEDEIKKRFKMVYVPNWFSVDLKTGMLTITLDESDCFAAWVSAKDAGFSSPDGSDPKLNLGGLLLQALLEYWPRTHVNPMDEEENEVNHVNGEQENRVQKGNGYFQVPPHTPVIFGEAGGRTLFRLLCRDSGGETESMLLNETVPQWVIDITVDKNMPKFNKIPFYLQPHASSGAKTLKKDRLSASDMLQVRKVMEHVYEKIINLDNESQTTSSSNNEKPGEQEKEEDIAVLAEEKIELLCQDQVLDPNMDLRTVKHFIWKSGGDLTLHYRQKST
property: pIC50
Note on pIC50: it is the negative log10 of concentration, concentration in mol/L.

Reference set, count: 4
{"compound": "COc1cnc(-c2c(C)ncn2C(C)C)nc1NCC12CCC(c3ccc(C(F)(F)F)cn3)(CC1)CC2", "pIC50": 5.98}
{"compound": "COc1cnc(-c2c(OC)ncnc2C2CC2)nc1NCC12C3C4C1C1C2C3C41c1nc(C(F)(F)F)cn1C (centres unmarked)", "pIC50": 8.66}
{"compound": "COc1ncnc(C2CC2)c1-c1nc(NCc2ccc(-c3ccccn3)cc2)c2occc2n1", "pIC50": 8.16}
{"compound": "CC(C)c1ccccc1-c1ncc2c(n1)N(C[C@H]1CC[C@H](c3nc(C(F)(F)F)cn3C)CC1)CCO2", "pIC50": 8.72}

Here's the next entry for you.
[in] Give a short answer stating reported pIC50 for `CC(C)c1ccccc1-c1ncc2c(n1)N(C[C@H]1CC[C@@H](c3nc(C(F)(F)F)cn3C)CC1)CCO2` .
[out] 7.22
